Below, each entry is listed with its recorded dose excreted.
# test_details: Drug excretion in rat urine at 5 umol/kg, intra arterial and 2 umol/kg, po
# Assay type: ADME, organism-based
# reported_conditions: read-out: Activity
endpoint: dose excreted

> print(dat)
                                test.smiles       endpoint  result
1  CCn1nccc1NC(=O)c1cn2c(-c3ccc(Cl)cc3Cl)c(CN)c(C)nc2n1  dose excreted    4.4%
2  Cc1nc2nc(C(=O)N3CCOCC3)cn2c(-c2ccc(Cl)cc2Cl)c1CN  dose excreted     56%

----------
# test_details: Half life in dog at 5 umol/kg, intra arterial and 2 umol/kg, po
# Type: ADME, organism-based, Canis lupus familiaris
# reported_conditions: in vivo
endpoint: half-life (h)

> print(dat)
                                test.smiles  display.unit  readout.number
1  Cc1nc2nc(C(=O)N3CCOCC3)cn2c(-c2ccc(Cl)cc2Cl)c1CN             h             4.6
